molecular target: Proto-oncogene tyrosine-protein kinase receptor Ret (Homo sapiens); details: at 1 µM
Observation type: residual activity (%)
Write down the numeric answer in % and omit the unit.

Entry Cn1c2ccccc2c2c3c(c4c5ccccc5n(CCC#N)c4c21)CNC3=O ; residual activity = -1

// O=c1cc(N2CCOCC2)oc2c1ccc1ccccc12 : residual activity value = 99

residual activity in this record for O=C(Nc1nc2ccccc2n1CCN1CCOCC1)c1cccc([N+](=O)[O-])c1 : 88

---

biological target: ALK tyrosine kinase receptor (Homo sapiens) (UniProt Q9UM73); conditions: at 1 µM
Sequence (Q9UM73 19-1620 limits assumed): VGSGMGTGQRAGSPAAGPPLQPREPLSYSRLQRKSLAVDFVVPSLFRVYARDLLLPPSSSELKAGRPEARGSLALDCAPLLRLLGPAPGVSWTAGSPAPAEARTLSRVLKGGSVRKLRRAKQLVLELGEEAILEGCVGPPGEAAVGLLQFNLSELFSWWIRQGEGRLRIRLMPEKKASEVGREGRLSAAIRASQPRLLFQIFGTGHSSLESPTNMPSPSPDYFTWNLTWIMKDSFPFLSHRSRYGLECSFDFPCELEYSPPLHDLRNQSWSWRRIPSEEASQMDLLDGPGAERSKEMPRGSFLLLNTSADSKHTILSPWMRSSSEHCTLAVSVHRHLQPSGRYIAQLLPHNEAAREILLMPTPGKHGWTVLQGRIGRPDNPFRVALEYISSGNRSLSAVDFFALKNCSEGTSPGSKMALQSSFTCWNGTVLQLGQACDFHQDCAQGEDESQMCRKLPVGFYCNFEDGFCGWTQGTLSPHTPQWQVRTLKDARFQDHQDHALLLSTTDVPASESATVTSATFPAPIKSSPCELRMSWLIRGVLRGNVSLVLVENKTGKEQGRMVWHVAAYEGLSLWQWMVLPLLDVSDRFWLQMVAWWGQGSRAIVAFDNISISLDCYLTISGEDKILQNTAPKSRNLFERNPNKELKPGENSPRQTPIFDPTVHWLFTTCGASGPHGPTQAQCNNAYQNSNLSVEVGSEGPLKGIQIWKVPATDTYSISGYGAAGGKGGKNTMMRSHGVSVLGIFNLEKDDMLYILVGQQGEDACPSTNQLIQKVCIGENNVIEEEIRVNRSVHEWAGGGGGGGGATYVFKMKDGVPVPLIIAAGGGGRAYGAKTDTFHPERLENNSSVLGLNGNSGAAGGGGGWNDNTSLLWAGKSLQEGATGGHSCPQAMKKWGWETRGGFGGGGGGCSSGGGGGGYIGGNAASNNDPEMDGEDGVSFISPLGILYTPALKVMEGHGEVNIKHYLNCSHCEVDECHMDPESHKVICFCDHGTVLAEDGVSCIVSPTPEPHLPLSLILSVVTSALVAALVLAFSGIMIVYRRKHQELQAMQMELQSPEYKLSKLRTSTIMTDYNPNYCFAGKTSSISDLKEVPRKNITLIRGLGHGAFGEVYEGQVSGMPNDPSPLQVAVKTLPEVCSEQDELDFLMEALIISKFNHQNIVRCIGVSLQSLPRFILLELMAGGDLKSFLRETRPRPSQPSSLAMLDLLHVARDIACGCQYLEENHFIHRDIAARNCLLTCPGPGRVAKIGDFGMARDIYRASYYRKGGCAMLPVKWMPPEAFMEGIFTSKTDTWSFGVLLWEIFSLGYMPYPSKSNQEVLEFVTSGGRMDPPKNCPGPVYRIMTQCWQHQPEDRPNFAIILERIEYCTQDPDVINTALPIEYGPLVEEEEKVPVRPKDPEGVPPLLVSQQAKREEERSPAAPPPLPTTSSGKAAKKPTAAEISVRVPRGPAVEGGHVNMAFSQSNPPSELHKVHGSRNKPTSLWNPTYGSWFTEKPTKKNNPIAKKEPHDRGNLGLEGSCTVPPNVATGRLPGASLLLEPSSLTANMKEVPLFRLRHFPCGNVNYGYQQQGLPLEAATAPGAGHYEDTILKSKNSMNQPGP
Listing of entries alongside the reported residual activity.
Express your answer in %, writing the number without its unit.

Example compounds with recorded residual activity:
* O=C1NC(=O)C(c2cn(CCCO)c3ncccc23)=C1c1cnccn1 | 84
* CCOC(=O)c1c(C)[nH]c(/C=C2\C(=O)Nc3ccccc32)c1C | 80
* O=c1cc(N2CCOCC2)oc2c(-c3ccccc3)cccc12 | 73
* N#C/C(=C1/Nc2ccccc2S1)c1ccnc(NCCc2cccnc2)n1 | 64
* COc1cc2c(cc1OC)-c1n[nH]c(Nc3cccc(F)c3)c1C2 | 74
* COc1cc2ncnc(Nc3cccc(Cl)c3)c2cc1OC | 100
* O=C1C(Cl)=C(N2C(=O)CCC2=O)C(=O)c2ccccc21 | 65
* CCCCc1c(-c2ccc(O)cc2)[nH]c2nccnc12 | 71
* O=C(Nc1nc2ccccc2n1CCN1CCOCC1)c1cccc([N+](=O)[O-])c1 | 70
* Cn1c2ccccc2c2c3c(c4c5ccccc5n(CCC#N)c4c21)CNC3=O | 0

The compound CN([C@@H](Cc1ccc(OS(=O)(=O)c2cccc3cnccc23)cc1)C(=O)N1CCN(c2ccccc2)CC1)S(=O)(=O)c1cccc2cnccc12 showed residual activity equal to 74

Lab book: residual activity of O=C1Nc2ccc(Cl)cc2/C1=C/c1cc(Cl)c(O)c(Cl)c1 noted as 68

---

biological target: Insulin receptor-related protein (Homo sapiens) (UniProt P14616); conditions: at 1 µM
Sequence (P14616 27-742 limits assumed): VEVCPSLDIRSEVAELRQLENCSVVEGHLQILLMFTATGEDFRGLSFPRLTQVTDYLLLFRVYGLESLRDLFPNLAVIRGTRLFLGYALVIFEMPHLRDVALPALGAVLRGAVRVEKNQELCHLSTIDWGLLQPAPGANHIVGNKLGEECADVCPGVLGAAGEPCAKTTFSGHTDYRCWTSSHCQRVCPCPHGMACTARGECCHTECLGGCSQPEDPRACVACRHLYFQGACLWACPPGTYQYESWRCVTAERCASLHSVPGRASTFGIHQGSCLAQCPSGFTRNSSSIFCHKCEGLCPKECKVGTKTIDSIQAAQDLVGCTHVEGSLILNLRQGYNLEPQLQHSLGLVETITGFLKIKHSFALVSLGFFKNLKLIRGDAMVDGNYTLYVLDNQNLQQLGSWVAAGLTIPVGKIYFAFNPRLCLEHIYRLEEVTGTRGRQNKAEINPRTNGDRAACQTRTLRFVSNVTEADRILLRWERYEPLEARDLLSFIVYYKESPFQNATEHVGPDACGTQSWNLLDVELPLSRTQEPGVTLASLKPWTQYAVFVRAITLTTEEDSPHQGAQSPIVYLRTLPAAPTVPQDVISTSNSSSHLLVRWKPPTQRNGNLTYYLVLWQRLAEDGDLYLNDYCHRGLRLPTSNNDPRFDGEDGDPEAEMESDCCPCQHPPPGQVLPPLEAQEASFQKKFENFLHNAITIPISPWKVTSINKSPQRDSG
Sequence (P14616 747-1297 limits assumed): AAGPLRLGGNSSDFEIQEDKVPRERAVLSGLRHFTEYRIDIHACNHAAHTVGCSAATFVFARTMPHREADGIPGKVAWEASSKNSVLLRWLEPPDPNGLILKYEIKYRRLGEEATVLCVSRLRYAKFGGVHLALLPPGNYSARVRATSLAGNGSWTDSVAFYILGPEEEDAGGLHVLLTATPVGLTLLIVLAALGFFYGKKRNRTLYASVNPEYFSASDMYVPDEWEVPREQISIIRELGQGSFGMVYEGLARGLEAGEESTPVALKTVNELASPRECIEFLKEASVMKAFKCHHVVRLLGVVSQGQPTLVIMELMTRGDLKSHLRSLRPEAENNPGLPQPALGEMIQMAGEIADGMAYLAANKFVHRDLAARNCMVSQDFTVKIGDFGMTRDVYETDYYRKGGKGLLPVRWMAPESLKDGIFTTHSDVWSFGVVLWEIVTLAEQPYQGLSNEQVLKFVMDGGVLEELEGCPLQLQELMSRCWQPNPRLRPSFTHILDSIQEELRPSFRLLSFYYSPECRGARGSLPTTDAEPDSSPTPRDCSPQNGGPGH
Observation type: residual activity (%)
Could you give me the number in %? Just the number is fine.

Some solved entries appear below for comparison.
* COc1cc2ncnc(Nc3cccc(Cl)c3)c2cc1OC | 105
* Nc1ncnc2c1c(-c1ccc(Oc3ccccc3)cc1)cn2C1CCCC1 | 114
* Fc1ccc(-c2nc3n(c2-c2ccncc2)CCS3)cc1 | 128
* CN(C)S(=O)(=O)c1ccc2c(c1)/C(=C/c1cc3c([nH]1)CCCC3)C(=O)N2 | 85
* CCCC(=O)Oc1ccc2[nH]c(C(=O)c3cc4ccccc4[nH]3)cc2c1 | 134

Noted for Nc1nc(Nc2ccc(S(N)(=O)=O)cc2)nn1C(=O)c1c(F)cccc1F : its residual activity reads 112

---

biological target: Cyclin-dependent kinase 5/CDK5 activator 1 (Homo sapiens) (UniProt Q00535+Q15078); details: at 1 µM
Observation type: residual activity (%)
Number only, in %; omit the unit.

See these solved cases before continuing.
* COc1cc2c(cc1OC)-c1n[nH]c(Nc3cccc(F)c3)c1C2 | 81
* CC(C)[C@H](CO)Nc1nc(Nc2cc(N)cc(Cl)c2)c2ncn(C(C)C)c2n1 | 20
* O=C1NC(=O)C(c2cn(CCCn3ccnc3)c3ccccc23)=C1Nc1ccccc1 | 71

# evaluate next
Per the records, this compound ( CC(C)N(CCC(=O)c1ccc2ccccc2c1)Cc1ccccc1 ) has residual activity equal to 79

---

target: AMP-activated protein kinase, AMPK (Homo sapiens) (UniProt P54646+O43741+P54619+Q9UGJ0+Q9Y478+Q13131+Q9UGI9); conditions: at 10 µM
Decide by residual activity: equal to or exceeding 70% means met, less means not met.

Check out these entries, answers already filled in.
* CSc1nc(-c2ccc(F)cc2)c(-c2ccnc(NC(C)c3ccccc3)c2)[nH]1 (centres undefined) | not met
* O=C(NC(NC(=S)Nc1ccc(F)c([N+](=O)[O-])c1)C(Cl)(Cl)Cl)C(c1ccccc1)c1ccccc1 (centres undefined) | met
* O=C(Nc1nc2ccccc2n1CCN1CCOCC1)c1cccc([N+](=O)[O-])c1 | met
* CN(C)S(=O)(=O)c1ccc2c(c1)/C(=C/c1cc3c([nH]1)CCCC3)C(=O)N2 | not met
* c1ccc(-c2cnc(Nc3ccc(OCCN4CCCC4)cc3)s2)cc1 | not met
* O=C1NC(=O)C(c2c[nH]c3ccccc23)=C1c1c[nH]c2ccccc12 | not met

Ask: Determine whether this compound has residual activity no lower than 70%: Cn1sc(=O)n(Cc2ccccc2)c1=O
Result: met

Ask: Quick check, residual activity >= 70%? CCN(CC)CCNC(=O)c1c(C)[nH]c(/C=C2\C(=O)Nc3ccc(Cl)cc32)c1C
Result: not met

Ask: Reported residual activity reaches at least 70% for Nc1ncnc2c1c(-c1ccc(Oc3ccccc3)cc1)cn2C1CCCC1 ?
Result: not met

---

target: Mitogen-activated protein kinase kinase kinase 5 (Homo sapiens); details: at 1 µM
Observation type: residual activity (%)
Numeric only. Scale: %

Completed entries (count: 3):
* N#C/C(=C1/Nc2ccccc2S1)c1ccnc(NCCc2cccnc2)n1 | 78
* Nc1nc(Nc2ccc(S(N)(=O)=O)cc2)nn1C(=O)c1c(F)cccc1F | 102
* O=C1NC(=O)C(c2cn(CCCn3ccnc3)c3ccccc23)=C1Nc1ccccc1 | 82

Kindly consider the entry below.
Briefly, residual activity measured for O=C1Nc2ccc(Cl)cc2/C1=C/c1cc(Cl)c(O)c(Cl)c1 : 93

---

target: High affinity nerve growth factor receptor (Homo sapiens) (UniProt P04629); details: at 10 µM
Sequence (P04629 33-796 limits assumed): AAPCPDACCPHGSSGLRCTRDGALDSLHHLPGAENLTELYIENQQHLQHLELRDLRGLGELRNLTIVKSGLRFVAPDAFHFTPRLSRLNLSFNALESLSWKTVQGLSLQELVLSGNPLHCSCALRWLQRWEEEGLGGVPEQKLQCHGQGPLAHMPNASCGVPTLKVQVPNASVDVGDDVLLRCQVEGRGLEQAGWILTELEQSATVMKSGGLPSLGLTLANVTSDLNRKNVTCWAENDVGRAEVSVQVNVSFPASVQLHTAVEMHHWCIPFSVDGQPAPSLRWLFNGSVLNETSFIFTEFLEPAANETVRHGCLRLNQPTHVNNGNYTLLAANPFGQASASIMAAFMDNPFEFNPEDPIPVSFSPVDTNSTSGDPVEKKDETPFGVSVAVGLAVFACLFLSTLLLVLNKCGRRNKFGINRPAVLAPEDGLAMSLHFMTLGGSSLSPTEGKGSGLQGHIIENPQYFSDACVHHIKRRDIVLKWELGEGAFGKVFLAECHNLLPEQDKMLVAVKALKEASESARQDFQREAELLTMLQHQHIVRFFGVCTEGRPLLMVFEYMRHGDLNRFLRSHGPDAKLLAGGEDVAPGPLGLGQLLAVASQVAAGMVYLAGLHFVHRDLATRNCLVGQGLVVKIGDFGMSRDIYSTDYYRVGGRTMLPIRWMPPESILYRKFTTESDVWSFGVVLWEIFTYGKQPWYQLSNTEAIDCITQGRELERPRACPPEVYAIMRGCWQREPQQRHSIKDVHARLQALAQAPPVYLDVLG
The threshold is 40%. Values of residual activity beneath it are tagged class 1; values meeting or exceeding it are tagged class 0.

Here are 4 compounds together with their reported answers.
- CC(C)c1nn(-c2c(Cl)cccc2Cl)c2nc(Cc3ccc(OCCO)cc3)[nH]c(=O)c12: class 0
- CC(C)(C)c1nc2c3ccc(F)cc3c3c(=O)[nH]ccc3c2[nH]1: class 1
- CCCC(=O)Oc1ccc2[nH]c(C(=O)c3cc4ccccc4[nH]3)cc2c1: class 0
- O=C1NC(=O)C(c2c[nH]c3ccccc23)=C1c1c[nH]c2ccccc12: class 1

# evaluate next
Ask: Check if residual activity falls below 40% for O=C1Nc2ccccc2/C1=C\c1c(Cl)[nH]c2ccccc12 .
Result: class 1

---

biological target: Maternal embryonic leucine zipper kinase (Homo sapiens) (UniProt Q14680); conditions: at 1 µM
Sequence (Q14680 whole entry, looked up): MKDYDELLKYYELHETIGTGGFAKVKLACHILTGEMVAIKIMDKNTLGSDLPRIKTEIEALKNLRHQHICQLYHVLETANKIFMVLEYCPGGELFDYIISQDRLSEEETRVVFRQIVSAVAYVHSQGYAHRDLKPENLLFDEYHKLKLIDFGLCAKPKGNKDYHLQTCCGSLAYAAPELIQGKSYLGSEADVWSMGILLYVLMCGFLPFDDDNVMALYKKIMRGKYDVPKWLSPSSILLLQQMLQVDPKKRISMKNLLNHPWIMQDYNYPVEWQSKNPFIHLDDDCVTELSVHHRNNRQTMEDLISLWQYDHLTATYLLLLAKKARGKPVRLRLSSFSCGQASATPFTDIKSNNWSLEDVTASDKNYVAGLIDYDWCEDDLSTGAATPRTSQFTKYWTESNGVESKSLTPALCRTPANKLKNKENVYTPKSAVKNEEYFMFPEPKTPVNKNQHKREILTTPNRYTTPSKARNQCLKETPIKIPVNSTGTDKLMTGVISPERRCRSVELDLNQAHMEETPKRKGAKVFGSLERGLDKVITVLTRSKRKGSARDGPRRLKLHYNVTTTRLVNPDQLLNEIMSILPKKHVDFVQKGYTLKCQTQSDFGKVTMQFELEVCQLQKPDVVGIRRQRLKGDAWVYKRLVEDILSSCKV
Lab note: anything with residual activity below 80% is marked yes; values at 80% or higher are marked no.

• CCOC(=O)c1c(C)[nH]c(/C=C2\C(=O)Nc3ccccc32)c1C = yes
• COc1cc2nccc(Oc3ccc(NC(=S)NC(=O)c4ccccc4C)cc3)c2cc1OC = no
• c1ccc(-c2cnc(Nc3ccc(OCCN4CCCC4)cc3)s2)cc1 = yes

Query compound follows.
Ask: residual activity strictly < 80% for this compound? O=S(=O)(NCCNC/C=C/c1ccc(Br)cc1)c1cccc2cnccc12
Result: yes

---

target: Serine/threonine-protein kinase pim-3 (Homo sapiens) (UniProt Q86V86); conditions: at 10 µM
The threshold is 80%. Values of residual activity beneath it are tagged met; values meeting or exceeding it are tagged not met.

Please review the following examples before continuing.
• Oc1cccc(-c2nc(N3CCOCC3)c3oc4ncccc4c3n2)c1 = not met
• COc1cc2nccc(Oc3ccc(NC(=O)Nc4cc(C)on4)c(Cl)c3)c2cc1OC = not met
• CCN1/C(=C/C(C)=O)Sc2ccc(OC)cc21 = met

Now for another entry.
Ask: Say whether its residual activity is strictly beneath 80%. Entry: COc1cc2nccc(Oc3ccc(NC(=S)NC(=O)c4ccccc4C)cc3)c2cc1OC
Result: not met

---

target: Serine/threonine-protein kinase PAK 6 (Homo sapiens) (UniProt Q9NQU5); conditions: at 1 µM
Sequence (Q9NQU5 whole entry, looked up): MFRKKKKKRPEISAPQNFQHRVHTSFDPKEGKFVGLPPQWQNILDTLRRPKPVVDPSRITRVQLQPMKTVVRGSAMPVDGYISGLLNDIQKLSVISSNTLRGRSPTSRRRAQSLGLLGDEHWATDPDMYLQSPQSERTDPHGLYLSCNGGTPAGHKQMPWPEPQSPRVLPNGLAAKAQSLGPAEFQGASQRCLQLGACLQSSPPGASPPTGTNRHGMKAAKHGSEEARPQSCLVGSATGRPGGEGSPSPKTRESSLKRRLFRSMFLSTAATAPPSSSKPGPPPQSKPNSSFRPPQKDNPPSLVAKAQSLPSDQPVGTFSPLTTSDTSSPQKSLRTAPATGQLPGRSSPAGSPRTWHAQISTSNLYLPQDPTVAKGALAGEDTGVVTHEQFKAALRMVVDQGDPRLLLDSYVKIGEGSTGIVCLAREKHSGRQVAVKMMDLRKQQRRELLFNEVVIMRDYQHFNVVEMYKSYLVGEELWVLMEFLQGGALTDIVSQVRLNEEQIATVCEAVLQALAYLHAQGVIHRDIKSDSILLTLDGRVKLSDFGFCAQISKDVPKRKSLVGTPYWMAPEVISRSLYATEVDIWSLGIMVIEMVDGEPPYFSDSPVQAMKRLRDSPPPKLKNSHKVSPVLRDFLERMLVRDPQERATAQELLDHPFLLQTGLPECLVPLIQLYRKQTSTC
# key: entry, value: residual activity
Just the number plus its unit, please.

Record excerpt, results attached:
- O=C1Cc2c([nH]c3ccc([N+](=O)[O-])cc23)-c2ccccc2N1: 61%
- O=C1NC(=O)C(c2cn(CCCO)c3ncccc23)=C1c1cnccn1: 78%
- O=C1NC(=O)c2c1c1c3ccccc3[nH]c1n1cncc21: 98%
- O=C(c1ccccc1)c1ccc(N2CCOCC2)cc1O: 82%

Now, please, on to the next compound.
Record CCCCc1c(-c2ccc(O)cc2)[nH]c2nccnc12 / Serine/threonine-protein kinase PAK 6 (Homo sapiens) (UniProt Q9NQU5), residual activity recorded as 94%

---

Target: Serine/threonine-protein kinase BRSK1 (Homo sapiens) (UniProt Q8TDC3)
Sequence (whole entry): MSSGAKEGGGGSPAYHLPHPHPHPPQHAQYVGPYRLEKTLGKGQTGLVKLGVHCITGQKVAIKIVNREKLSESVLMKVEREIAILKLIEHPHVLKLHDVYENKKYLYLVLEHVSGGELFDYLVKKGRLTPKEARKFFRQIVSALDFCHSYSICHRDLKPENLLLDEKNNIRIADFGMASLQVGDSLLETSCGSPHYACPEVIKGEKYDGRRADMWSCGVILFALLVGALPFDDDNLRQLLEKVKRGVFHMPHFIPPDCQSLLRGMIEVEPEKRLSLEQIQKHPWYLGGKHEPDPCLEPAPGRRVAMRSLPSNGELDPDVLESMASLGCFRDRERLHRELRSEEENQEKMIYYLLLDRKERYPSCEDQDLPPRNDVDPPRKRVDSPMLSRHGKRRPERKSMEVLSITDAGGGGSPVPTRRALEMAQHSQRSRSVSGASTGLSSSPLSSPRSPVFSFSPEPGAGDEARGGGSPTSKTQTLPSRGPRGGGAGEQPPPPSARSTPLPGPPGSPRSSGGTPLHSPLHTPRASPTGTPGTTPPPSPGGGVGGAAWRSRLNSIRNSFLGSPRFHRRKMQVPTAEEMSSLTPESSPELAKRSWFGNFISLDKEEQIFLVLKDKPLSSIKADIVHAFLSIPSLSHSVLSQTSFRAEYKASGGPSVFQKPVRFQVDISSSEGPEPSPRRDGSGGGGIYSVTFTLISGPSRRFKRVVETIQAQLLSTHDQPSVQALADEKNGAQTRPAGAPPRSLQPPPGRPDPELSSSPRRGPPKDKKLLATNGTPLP
Conditions: at 1 µM
Label yes when residual activity < 80%; otherwise no.

- O=c1cc(N2CCOCC2)oc2c1ccc1ccccc12: no
- CCCCc1c(-c2ccc(O)cc2)[nH]c2nccnc12: no
- CN(C)S(=O)(=O)c1ccc2c(c1)/C(=C/c1cc3c([nH]1)CCCC3)C(=O)N2: no

With those in mind, consider the next compound.
Ask: Determine whether this compound shows residual activity lower than 80% (ties excluded): NC(=O)Nc1sc(-c2ccc(F)cc2)cc1C(N)=O
Result: yes
